testedTarget: Human immunodeficiency virus type 1 protease (Human immunodeficiency virus 1)
pKi: −log10 of the molar value.
Short version: pKi at least 8 is Criterion met, less is Criterion not met.

Worked cases, answers included:
> print(dat)
                                querysmiles                              testedtarget      classname
1  CC(C)CCN(C[C@@H](O)[C@@H]1Cc2ccc(cc2)OCCCC[C@H](N)C(=O)N[C@@H](C(C)C)C(=O)N1)S(=O)(=O)c1ccc(N)cc1  Human immunodeficiency virus type 1 protease (Human immunodeficiency virus 1)  Criterion met
2  CCCC[C@@H]1NC(=O)[C@@H](NC(C)=O)CCCCOc2ccc(cc2)C[C@@H]([C@H](O)CN(CCC(C)C)S(=O)(=O)c2ccc(N)cc2)NC1=O  Human immunodeficiency virus type 1 protease (Human immunodeficiency virus 1)  Criterion met
3  CCCC[C@@H]1NC(=O)[C@@H](NC(=O)[C@@H](N)CO)CCCCOc2ccc(cc2)C[C@@H]([C@H](O)CN(CCC(C)C)S(=O)(=O)c2ccc(N)cc2)NC1=O  Human immunodeficiency virus type 1 protease (Human immunodeficiency virus 1)  Criterion met

Decide: is the reported value of pKi for CC(=O)N[C@@H](CO)C(=O)N[C@H]1CCCCOc2ccc(cc2)C[C@@H]([C@H](O)CN(CCC(C)C)S(=O)(=O)c2ccc(N)cc2)NC(=O)[C@H](C(C)C)NC1=O equal to or greater than 8?
Criterion met

Would you say CCCOC[C@@H]1NC(=O)[C@@H](N)CCCCOc2ccc(cc2)C[C@@H]([C@H](O)CN(CCC(C)C)S(=O)(=O)c2ccc(N)cc2)NC1=O shows pKi at minimum 8?
Criterion not met

###

System: MT2
procedureDetails: Concentration required to produce 50% reduction in virion associated RT activity in HIV-1 infected MT2 cells
Format: functional, cell-based
particulars: Homo sapiens
Entries and their pIC50
Please treat pIC50 as minus the base-10 logarithm of the molar concentration.

Solved cases (3 shown):
> print(dat)
                                querysmiles  datavalue
1  CCCC[C@@H]1NC(=O)[C@@H](NC(C)=O)CCCCOc2ccc(cc2)C[C@@H]([C@H](O)CN(CCC(C)C)S(=O)(=O)c2ccc(N)cc2)NC1=O       6.04
2  CCCCC(=O)N[C@H]1CCCCOc2ccc(cc2)C[C@@H]([C@H](O)CN(CCC(C)C)S(=O)(=O)c2ccc(NC(C)=O)cc2)NC(=O)[C@H](CCCC)NC1=O       6.24
3  CCCC[C@@H]1NC(=O)[C@@H](NC(=O)OC(C)(C)C)CCCCOc2ccc(cc2)C[C@@H]([C@H](O)CN(CCC(C)C)S(=O)(=O)c2ccc(NC(C)=O)cc2)NC1=O       6.41

We next turn to a different molecule, shown below.
pIC50 measured on CC(=O)Nc1ccc(S(=O)(=O)N(CCC(C)C)C[C@@H](O)[C@@H]2Cc3ccc(cc3)OCCCC[C@H](NC(=O)OC(C)(C)C)C(=O)N[C@@H](C(C)C)C(=O)N2)cc1 = 6.75

###

Test system: MT2
procedureDetails: Concentration required to produce 50% reduction in virion associated RT activity in HIV-1 infected MT2 cells
Format: functional, cell-based
particulars: Homo sapiens
measureName: pIC50
Please express pIC50 as -log10 of the molar concentration.

querySmiles	pIC50
CCCC[C@@H]1NC(=O)[C@@H](NC(=O)[C@H](CO)NC(=O)OC(C)(C)C)CCCCOc2ccc(cc2)C[C@@H]([C@H](O)CN(CCC(C)C)S(=O)(=O)c2ccc(NC(C)=O)cc2)NC1=O	5.59

Record CCCOC[C@@H]1NC(=O)[C@@H](NC(=O)OC(C)(C)C)CCCCOc2ccc(cc2)C[C@@H]([C@H](O)CN(CCC(C)C)S(=O)(=O)c2ccc(NC(C)=O)cc2)NC1=O / MT2, pIC50 recorded as 6.08

###

testedTarget: Human immunodeficiency virus type 1 protease (Human immunodeficiency virus 1)
measureName: Ki (nM)
Enter your answer as a number in nM; do not include the unit.

# annotated cases, reported Ki shown
querySmiles	Ki [nM]
CC(=O)Nc1ccc(S(=O)(=O)N(CCC(C)C)C[C@@H](O)[C@@H]2Cc3ccc(cc3)OCCCC[C@H](NC(=O)OC(C)(C)C)C(=O)N[C@@H](C(C)C)C(=O)N2)cc1	2
CCCOC[C@@H]1NC(=O)[C@@H](NC(=O)OC(C)(C)C)CCCCOc2ccc(cc2)C[C@@H]([C@H](O)CN(CCC(C)C)S(=O)(=O)c2ccc(NC(C)=O)cc2)NC1=O	45
CCCC[C@@H]1NC(=O)[C@@H](NC(=O)[C@H](CO)NC(=O)OC(C)(C)C)CCCCOc2ccc(cc2)C[C@@H]([C@H](O)CN(CCC(C)C)S(=O)(=O)c2ccc(NC(C)=O)cc2)NC1=O	12

The recorded Ki for entry CCCC[C@@H]1NC(=O)[C@@H](N)CCCCOc2ccc(cc2)C[C@@H]([C@H](O)CN(CCC(C)C)S(=O)(=O)c2ccc(N)cc2)NC1=O equals 0.31

###

System: MT2
procedureDetails: Concentration required to produce 50% reduction in virion associated RT activity in HIV-1 infected MT2 cells
Type: functional, cell-based
particulars: Homo sapiens
measureName: pIC50
Give only the number. pIC50 is defined as minus log10 of concentration in molar units.

> print(dat)
                                querysmiles  datavalue
1  CC(C)CN(C[C@@H](O)[C@H](Cc1ccccc1)NC(=O)O[C@H]1CCOC1)S(=O)(=O)c1ccc(N)cc1       7.52

For the next question, use this compound.
Record CCCC[C@@H]1NC(=O)[C@@H](N)CCCCOc2ccc(cc2)C[C@@H]([C@H](O)CN(CCC(C)C)S(=O)(=O)c2ccc(N)cc2)NC1=O has MT2 pIC50 equal to 5.16

###

Entries and their logD
procedureDetails: The Water-octanol distribution coefficient at pH6.5
Assay type: physicochemical
particulars: pH 6.5, read-out: Log D6.5

querySmiles	logD
CCCC[C@@H]1NC(=O)[C@@H](N)CCCCOc2ccc(cc2)C[C@@H]([C@H](O)CN(CCC(C)C)S(=O)(=O)c2ccc(N)cc2)NC1=O	1.7
CCCC[C@@H]1NC(=O)[C@@H](NC(C)=O)CCCCOc2ccc(cc2)C[C@@H]([C@H](O)CN(CCC(C)C)S(=O)(=O)c2ccc(N)cc2)NC1=O	3
CCCC[C@@H]1NC(=O)[C@@H](NC(=O)[C@H](CO)NC(=O)OC(C)(C)C)CCCCOc2ccc(cc2)C[C@@H]([C@H](O)CN(CCC(C)C)S(=O)(=O)c2ccc(NC(C)=O)cc2)NC1=O	3

logD reported for this compound CCCC[C@@H]1NC(=O)[C@@H](NC(=O)OC(C)(C)C)CCCCOc2ccc(cc2)C[C@@H]([C@H](O)CN(CCC(C)C)S(=O)(=O)c2ccc(NC(C)=O)cc2)NC1=O : 4.8

Entry CC(C)CCN(C[C@@H](O)[C@@H]1Cc2ccc(cc2)OCCCC[C@H](N)C(=O)N[C@@H](C(C)C)C(=O)N1)S(=O)(=O)c1ccc(N)cc1 — recorded logD = 1

Sure, the documented logD for CC(=O)Nc1ccc(S(=O)(=O)N(CCC(C)C)C[C@@H](O)[C@@H]2Cc3ccc(cc3)OCCCC[C@H](NC(=O)OC(C)(C)C)C(=O)N[C@@H](C(C)C)C(=O)N2)cc1 is 4.1

logD in this record for CCCOC[C@@H]1NC(=O)[C@@H](NC(=O)OC(C)(C)C)CCCCOc2ccc(cc2)C[C@@H]([C@H](O)CN(CCC(C)C)S(=O)(=O)c2ccc(NC(C)=O)cc2)NC1=O : 3.6

logD for CC(=O)N[C@@H](CO)C(=O)N[C@H]1CCCCOc2ccc(cc2)C[C@@H]([C@H](O)CN(CCC(C)C)S(=O)(=O)c2ccc(N)cc2)NC(=O)[C@H](C(C)C)NC1=O is 0.4

Just so you know, measured logD for CCCC[C@@H]1NC(=O)[C@@H](NC(=O)[C@@H](N)CO)CCCCOc2ccc(cc2)C[C@@H]([C@H](O)CN(CCC(C)C)S(=O)(=O)c2ccc(N)cc2)NC1=O came out at 0.6

Looking up CCCCC(=O)N[C@H]1CCCCOc2ccc(cc2)C[C@@H]([C@H](O)CN(CCC(C)C)S(=O)(=O)c2ccc(NC(C)=O)cc2)NC(=O)[C@H](CCCC)NC1=O , I found its logD recorded as 4.6

Field logD (entry CCCOC[C@@H]1NC(=O)[C@@H](N)CCCCOc2ccc(cc2)C[C@@H]([C@H](O)CN(CCC(C)C)S(=O)(=O)c2ccc(N)cc2)NC1=O ) reads 0.5

###

Test system: MT2
procedureDetails: Concentration required to produce 50% reduction in virion associated RT activity in HIV-1 infected MT2 cells
Assay type: functional, cell-based
particulars: Homo sapiens
pIC50: −log10 of the molar value.
Reported pIC50 is given for each of the following compounds.

The examples below pair each entry with its known result.
> print(dat)
                                querysmiles  testedtarget  datavalue
1  CC(=O)N[C@@H](CO)C(=O)N[C@H]1CCCCOc2ccc(cc2)C[C@@H]([C@H](O)CN(CCC(C)C)S(=O)(=O)c2ccc(N)cc2)NC(=O)[C@H](C(C)C)NC1=O           MT2     < 5.00
2  CC(C)CCN(C[C@@H](O)[C@@H]1Cc2ccc(cc2)OCCCC[C@H](N)C(=O)N[C@@H](C(C)C)C(=O)N1)S(=O)(=O)c1ccc(N)cc1           MT2     < 5.00

Please look at the following compound next.
// pIC50 lookup, compound = CCCOC[C@@H]1NC(=O)[C@@H](N)CCCCOc2ccc(cc2)C[C@@H]([C@H](O)CN(CCC(C)C)S(=O)(=O)c2ccc(N)cc2)NC1=O , result: < 5.00
